Assayed System: Cholinesterase (Equus caballus) (UniProt P81908)
Sequence (P81908 whole entry): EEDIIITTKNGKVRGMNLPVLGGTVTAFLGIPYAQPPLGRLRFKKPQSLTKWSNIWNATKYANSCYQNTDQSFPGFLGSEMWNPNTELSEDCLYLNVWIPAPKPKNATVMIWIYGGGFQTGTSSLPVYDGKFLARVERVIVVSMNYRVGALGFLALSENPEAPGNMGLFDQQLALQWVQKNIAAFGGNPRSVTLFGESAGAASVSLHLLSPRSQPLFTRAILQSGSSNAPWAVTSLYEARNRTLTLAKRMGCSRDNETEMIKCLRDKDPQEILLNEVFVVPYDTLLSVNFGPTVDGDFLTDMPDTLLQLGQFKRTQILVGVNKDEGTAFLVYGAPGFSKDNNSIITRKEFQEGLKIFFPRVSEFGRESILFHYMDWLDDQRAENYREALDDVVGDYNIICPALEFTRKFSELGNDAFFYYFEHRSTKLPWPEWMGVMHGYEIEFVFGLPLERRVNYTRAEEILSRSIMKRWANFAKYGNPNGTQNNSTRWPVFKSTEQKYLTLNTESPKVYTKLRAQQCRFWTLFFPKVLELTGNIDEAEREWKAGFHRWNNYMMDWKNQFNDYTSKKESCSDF
Run Description: Inhibition of equine serum BChE at 50 uM using S-butyrylthiocholine iodide as substrate incubated for 15 mins by Ellman's method relative to control
Measure: inhibition (%)
Quick reminder: number only, in %, skip the unit.

Quick one: inhibition for COc1ccc(-c2cc3c(c(=O)o2)C[C@]2(O)[C@@]4(C)CCC(=O)C(C)(C)[C@]4(O)CC[C@@]2(C)O3)cc1 ?
9.3

# query: inhibition of entry COc1ccc(-c2cc3c(c(=O)o2)C[C@H]2[C@@]4(C)C=CC(=O)C(C)(C)[C@@H]4CC[C@@]2(C)O3)cc1
0

Given the entry COc1ccc(-c2cc3c(c(=O)o2)C[C@]2(O)[C@@]4(C)CC[C@@H](OC(C)=O)C(C)(C)[C@]4(O)CC[C@@]2(C)O3)cc1 , report its measured inhibition.
4.7

// lookup inhibition for COc1ccc(-c2cc3c(c(=O)o2)C[C@]2(O)[C@@]4(C)CC[C@@H](O)C(C)(C)[C@]4(O)CC[C@@]2(C)O3)cc1
0

Which value of inhibition has been reported for COc1ccc(-c2cc3c(c(=O)o2)C[C@@H]2[C@@]4(C)CCC(=O)C(C)(C)[C@@H]4CC[C@@]2(C)O3)cc1 in the records?
11.6
